Dear all, this message contains IC50 results, target or system His6-TEV-PDGFRβ (557-1016) (Homo sapiens (Human), UniProt P09619).

| COMPOUND | UNIT TEXT | IC50 |
| --- | --- | --- |
| CCCNCC(=O)Nc1cnc(C)c(NC(=O)c2cnn3cc(-c4cnn5c4OCCC5)sc23)c1 | nM | 0.6 |
| Cc1ncc(NC(=O)CN2CCOC[C@@H]2C)cc1NC(=O)c1cnn2cc(-c3cnn(C)c3)sc12 | nM | 1 |
| COCCn1cc(-c2cn3ncc(C(=O)Nc4cc(NC(=O)CCN5CCC(C)(C)C5)cnc4C)c3s2)cn1 | nM | 0.6 |
| Cc1ncc(NC(=O)CN2C[C@H](C)O[C@@H](C)C2)cc1NC(=O)c1cnn2cc(-c3cnn(C4CC4)c3)sc12 (relative stereo) | nM | 0.6 |
| Cc1cc(C(=O)NCCN2CCCC23CCCC3)sc1NC(=O)c1cnn2cc(-c3cnn(C)c3)sc12 | nM | 1.4 |
| Cc1ncc(NC(=O)CN2CCC[C@@H]2C)cc1NC(=O)c1cnn2cc(-c3cnn(CCO)c3)sc12 | nM | 0.9 |
| Cc1ncc(NC(=O)CN2CC3CC(C2)O3)cc1NC(=O)c1cnn2cc(-c3cnn(C)c3)sc12 | nM | 1 |
